- Tested on: LOX IMVI melanoma
- procedureSummary: NCI tumour cell line growth inhibition, 48 h; in the data active = GI50 below about 0.43 µM; inactive = the rest
Mark one answer only. Choices: active, inactive

{"molecule": "COc1ccc(-c2nccn2-c2cc(OC)c(OC)c(OC)c2)cc1", "assignedCategory": "inactive"}

Assay outcome for CCS(=O)(=O)Nc1ccc(Oc2ccc(F)cc2F)c(-c2cn(C)c(=O)c3[nH]ccc23)c1 : what was it?
active

Hi, do you know how CCOC(=O)C(Cc1ccc(N(CCCl)CCCl)cc1)NC(=O)C(CC(C)C)NC(C)=O (stereo not drawn) came out in this test?
active

----------
- Test system: OVCAR-5 ovarian
- procedureSummary: NCI tumour cell line growth inhibition, 48 h
valueType: TGI

{"compound": "CC(C)(C)C(=O)C(C#N)C(=O)C(C)(C)C", "TGI": "> 100 µM"}

Sample COc1cc2c(c(OC)c1OC)-c1c(c3ccc([N+](=O)[O-])cc3c(=O)n1CCCN=[N+]=[N-])C2=O — what was its TGI?
> 100 µM

// lookup TGI for CCN(CC)CC(C(=O)Nc1c(C)cccc1C)/C(C)=N/NC(N)=S (stereo not given)
> 100 µM

Need TGI, item NC(=O)NOCC1NC(=O)NC1=O (stereo not given)
> 100 µM

// lookup TGI for CCOC(=O)C1(C/C=C\CBr)CCCCCCC1=O (stereo not given)
> 100 µM

Quick one: TGI of CC(C)(Oc1ccc(C2C[C@H]2Cl)cc1)C(=O)O (stereo not given in full) ?
> 100 µM

# TGI lookup, item C[Si](C)(C)C1=C2C(=O)c3ccccc3C(=O)C2=C([Si](C)(C)C)[C@@H]2CCCC[C@H]12
> 100 µM

Item CC(C)(C)OC(=O)N(CCCN)CCCCN(CCCN)C(=O)OC(C)(C)C has what recorded TGI?
> 100 µM
